tgt: Plasminogen (Bos taurus)
Sequence (P06868 104-583 limits assumed): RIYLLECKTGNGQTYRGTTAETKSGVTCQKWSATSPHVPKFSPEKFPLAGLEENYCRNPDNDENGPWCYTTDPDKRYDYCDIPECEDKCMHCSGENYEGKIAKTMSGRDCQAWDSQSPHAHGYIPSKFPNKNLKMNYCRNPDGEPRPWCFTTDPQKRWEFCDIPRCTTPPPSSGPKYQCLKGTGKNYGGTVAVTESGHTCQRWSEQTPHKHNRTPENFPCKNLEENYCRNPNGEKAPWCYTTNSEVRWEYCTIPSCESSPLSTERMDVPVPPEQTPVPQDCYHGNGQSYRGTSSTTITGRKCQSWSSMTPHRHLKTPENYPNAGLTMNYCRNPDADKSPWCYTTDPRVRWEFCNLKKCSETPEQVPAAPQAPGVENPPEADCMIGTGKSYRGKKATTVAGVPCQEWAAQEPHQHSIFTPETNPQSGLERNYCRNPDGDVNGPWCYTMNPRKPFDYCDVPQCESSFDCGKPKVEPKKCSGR
Sequence (P06868 584-812 limits assumed): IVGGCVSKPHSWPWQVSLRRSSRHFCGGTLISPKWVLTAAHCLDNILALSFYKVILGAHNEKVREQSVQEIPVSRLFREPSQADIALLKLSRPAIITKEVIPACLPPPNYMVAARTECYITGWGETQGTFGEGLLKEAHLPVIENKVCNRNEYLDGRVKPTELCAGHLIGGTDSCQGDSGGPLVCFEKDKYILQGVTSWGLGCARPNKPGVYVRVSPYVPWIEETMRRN
procedure_text: Inhibition of plasmin with Val-L-Leu-L-lysine-p-nitroanilide as substrate
Where a SMILES comes first, the peptide text is derived from it.

>  <compound>
CC(=O)N[C@H](C(=O)N[C@@H](CC(C)C)C(=O)N[C@H](C=O)CCCN=C(N)N)C(C)C (Ac-Val-Leu-Arg-aldehyde)

>  <IC50>
65 µM

$$$$
>  <compound>
CC(=O)N[C@@H](CC(C)C)C(=O)N[C@H](C(=O)N[C@H](C=O)CCCCN)C(C)C (Ac-Leu-Val-Lys-aldehyde)

>  <IC50>
13 µM

$$$$
>  <compound>
CC[C@H](C)[C@H](NC(C)=O)C(=O)N[C@@H](CC(C)C)C(=O)N[C@H](C=O)CCCN=C(N)N (Ac-Ile-Leu-Arg-aldehyde)

>  <IC50>
67 µM

$$$$
>  <compound>
CC[C@H](C)[C@H](NC(=O)[C@H](CC(C)C)NC(C)=O)C(=O)N[C@H](C=O)CCCN=C(N)N (Ac-Leu-Ile-Arg-aldehyde)

>  <IC50>
11 µM

$$$$
>  <compound>
CC(=O)N[C@@H](CC(C)C)C(=O)N[C@@H](CC(C)C)C(=O)N[C@H](C=O)CCCCN (Ac-Leu-Leu-Lys-aldehyde)

>  <IC50>
18 µM

$$$$
>  <compound>
CC(=O)N[C@@H](Cc1ccc(O)cc1)C(=O)N[C@@H](CC(C)C)C(=O)N[C@H](C=O)CCCN=C(N)N (Ac-Tyr-Leu-Arg-aldehyde)

>  <IC50>
78 µM

$$$$
>  <compound>
CC(=O)N[C@@H](CC(C)C)C(=O)N[C@@H](Cc1ccc(O)cc1)C(=O)N[C@H](C=O)CCCN=C(N)N (Ac-Leu-Tyr-Arg-aldehyde)

>  <IC50>
5.6 µM

$$$$
>  <compound>
CC[C@H](C)[C@H](NC(C)=O)C(=O)N[C@@H](CC(C)C)C(=O)N[C@H](C=O)CCCCN (Ac-Ile-Leu-Lys-aldehyde)

>  <IC50>
17 µM

$$$$
>  <compound>
CC(=O)N[C@@H](CC(C)C)C(=O)N[C@@H](CC(C)C)C(=O)N[C@H](C=O)CCCNC(=N)N [LEUPEPTIN]

>  <IC50>
3.7 µM

$$$$
>  <compound>
CC(=O)N[C@@H](Cc1ccccc1)C(=O)N[C@@H](CC(C)C)C(=O)N[C@H](C=O)CCCN=C(N)N (Ac-Phe-Leu-Arg-aldehyde)

>  <IC50>
7.7 µM

$$$$
>  <compound>
CC(=O)N[C@@H](CC(C)C)C(=O)N[C@@H](Cc1ccccc1)C(=O)N[C@H](C=O)CCCN=C(N)N (Ac-Leu-Phe-Arg-aldehyde)

>  <IC50>
3.6 µM

$$$$
>  <compound>
CC(=O)N[C@@H](Cc1ccccc1)C(=O)N[C@H](C(=O)N[C@H](C=O)CCCN=C(N)N)C(C)C (Ac-Phe-Val-Arg-aldehyde)

>  <IC50>
2.2 µM

$$$$

----------
tgt: UniProtKB P07688
procedure_text: Inhibition of cathepsin B with Cbz-L-lysine-p-nitrophenyl ester as substrate
pIC50: −log10 of the molar value. Where a SMILES comes first, the peptide text is derived from it.
assay_readout: pIC50

>  <compound>
CC[C@H](C)[C@H](NC(=O)[C@H](CC(C)C)NC(C)=O)C(=O)N[C@H](C=O)CCCN=C(N)N (Ac-Leu-Ile-Arg-aldehyde)

>  <endpoint_result>
6.82

$$$$
>  <compound>
CC(=O)N[C@@H](CC(C)C)C(=O)N[C@@H](CC(C)C)C(=O)N[C@H](C=O)CCCCN (Ac-Leu-Leu-Lys-aldehyde)

>  <endpoint_result>
6.89

$$$$
>  <compound>
CC(=O)N[C@@H](CC(C)C)C(=O)N[C@@H](Cc1ccccc1)C(=O)N[C@H](C=O)CCCCN (Ac-Leu-Phe-Lys-aldehyde)

>  <endpoint_result>
7.00

$$$$

// data source = ChEMBL document CHEMBL1126640
